Values were extracted from patent US20260242735A1.

Target: human CD33 variant P48H (human, UniProt P20138 18-364)
Sequence (P20138 18-364 P48H limits assumed): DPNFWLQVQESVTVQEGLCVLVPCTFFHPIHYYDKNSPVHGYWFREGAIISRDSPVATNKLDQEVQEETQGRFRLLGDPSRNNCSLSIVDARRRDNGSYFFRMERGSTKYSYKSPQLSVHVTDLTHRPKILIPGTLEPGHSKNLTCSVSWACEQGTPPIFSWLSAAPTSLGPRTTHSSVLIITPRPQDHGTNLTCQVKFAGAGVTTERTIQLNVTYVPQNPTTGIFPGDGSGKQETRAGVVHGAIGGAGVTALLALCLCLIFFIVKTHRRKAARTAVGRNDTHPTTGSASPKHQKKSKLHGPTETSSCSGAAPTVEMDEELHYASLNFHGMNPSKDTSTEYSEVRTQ
Assay: flow cytometry, IgG on cells expressing the mutant

BINDER: Refmab #3 (antibody, human IgG1, V domains shown, Tested in IgG format; human IgG1 Fc silent (PG-LALA)) VH: QVQLVQSGAEVKKPGSSVKVSCKASGYTFTDYNMHWVRQAPGQGLEWIGYIYPYNGGTGYNQKFKSKATITADESTNTAYMELSSLRSEDTAVYYCARGRPAMDYWGQGTLVTVSS VL: DIQMTQSPSSLSASVGDRVTITCRASESVDNYGISFMNWFQQKPGKAPKLLIYAASNQGSGVPSRFSGSGSGTDFTLTISSLQPDDFATYYCQQSKEVPWTFGQGTKVEIK
Mean % WT Binding: 87.6 % of WT
